measuredTarget: T1, Anti-PSMA Fab (SEQ ID NOs: 19, 20)
T1 construct: Biotinylated and captured on neutravidin coated plates in the phage ELISA; also called 006 PSMA Fab
methodDescription: phage binding ELISA; biotinylated PSMA Fab on neutravidin plate, bound phage detected with anti-M13-HRP
Where no end group is shown, it is not given here.
For each record, write down the corresponding Anti-PSMA Fab (SEQ ID NOs: 19, 20) signal.
Numbers only.

Examples with answers:
binder	recordedNumber
EAKWCIPAWMCEDA [Phage-2036]	1.8
IIKWCIPEWMCYMH [Phage-2028]	1.81

Please look at the following binder next.
Name the reported Anti-PSMA Fab (SEQ ID NOs: 19, 20) signal value associated with the binder VEKWCIPSWMCAEV (cysteine pairing not given here; also: fused to phage pIII, pIII sequence and linker not given here) [Phage-2031]
1.81
